Listing of entries alongside the reported enrichment ratio.
B1: PhoQ; a variant is named by its letters at X, in order, P23837 (parent)
chain: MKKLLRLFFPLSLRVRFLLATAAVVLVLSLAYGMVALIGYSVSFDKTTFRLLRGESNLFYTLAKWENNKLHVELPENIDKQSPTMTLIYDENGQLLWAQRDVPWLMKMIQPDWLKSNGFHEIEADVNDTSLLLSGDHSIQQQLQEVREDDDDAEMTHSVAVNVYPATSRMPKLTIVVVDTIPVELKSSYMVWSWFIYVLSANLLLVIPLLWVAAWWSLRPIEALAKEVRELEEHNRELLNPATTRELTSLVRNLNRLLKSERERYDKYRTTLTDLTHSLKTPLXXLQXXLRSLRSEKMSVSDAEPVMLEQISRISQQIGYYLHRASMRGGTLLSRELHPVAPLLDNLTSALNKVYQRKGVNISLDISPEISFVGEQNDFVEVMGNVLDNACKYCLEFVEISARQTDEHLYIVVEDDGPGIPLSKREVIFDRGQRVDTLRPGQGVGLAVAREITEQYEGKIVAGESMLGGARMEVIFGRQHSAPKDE

Variants of: B1
Experiment: enrichment ratio after two sorts for PhoP signalling (ratio (wild type AVST 3.29)); higher = more functional
Conditions: with PhoP (E. coli)
The full ranking holds about 140,000 sequences; the median of “enrichment ratio after two sorts for PhoP signalling” is about 0, and the highest 2% start at about 11. Shown is part of a subset that was picked to be rich in the highest values.
Please give the numeric answer without any surrounding text.

GNSM
10.6

Entry GIYI : reported enrichment ratio = ?
0.548

For TMMI then?
0.351

For GNAS then?
4.84
